- experimental-target: Serine/threonine-protein kinase MRCK beta (Homo sapiens) (UniProt Q9Y5S2);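 note: averaged inhibition values against MRCK beta, part of the GSK PKIS profiling dataset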
- Sequence (Q9Y5S2 whole entry): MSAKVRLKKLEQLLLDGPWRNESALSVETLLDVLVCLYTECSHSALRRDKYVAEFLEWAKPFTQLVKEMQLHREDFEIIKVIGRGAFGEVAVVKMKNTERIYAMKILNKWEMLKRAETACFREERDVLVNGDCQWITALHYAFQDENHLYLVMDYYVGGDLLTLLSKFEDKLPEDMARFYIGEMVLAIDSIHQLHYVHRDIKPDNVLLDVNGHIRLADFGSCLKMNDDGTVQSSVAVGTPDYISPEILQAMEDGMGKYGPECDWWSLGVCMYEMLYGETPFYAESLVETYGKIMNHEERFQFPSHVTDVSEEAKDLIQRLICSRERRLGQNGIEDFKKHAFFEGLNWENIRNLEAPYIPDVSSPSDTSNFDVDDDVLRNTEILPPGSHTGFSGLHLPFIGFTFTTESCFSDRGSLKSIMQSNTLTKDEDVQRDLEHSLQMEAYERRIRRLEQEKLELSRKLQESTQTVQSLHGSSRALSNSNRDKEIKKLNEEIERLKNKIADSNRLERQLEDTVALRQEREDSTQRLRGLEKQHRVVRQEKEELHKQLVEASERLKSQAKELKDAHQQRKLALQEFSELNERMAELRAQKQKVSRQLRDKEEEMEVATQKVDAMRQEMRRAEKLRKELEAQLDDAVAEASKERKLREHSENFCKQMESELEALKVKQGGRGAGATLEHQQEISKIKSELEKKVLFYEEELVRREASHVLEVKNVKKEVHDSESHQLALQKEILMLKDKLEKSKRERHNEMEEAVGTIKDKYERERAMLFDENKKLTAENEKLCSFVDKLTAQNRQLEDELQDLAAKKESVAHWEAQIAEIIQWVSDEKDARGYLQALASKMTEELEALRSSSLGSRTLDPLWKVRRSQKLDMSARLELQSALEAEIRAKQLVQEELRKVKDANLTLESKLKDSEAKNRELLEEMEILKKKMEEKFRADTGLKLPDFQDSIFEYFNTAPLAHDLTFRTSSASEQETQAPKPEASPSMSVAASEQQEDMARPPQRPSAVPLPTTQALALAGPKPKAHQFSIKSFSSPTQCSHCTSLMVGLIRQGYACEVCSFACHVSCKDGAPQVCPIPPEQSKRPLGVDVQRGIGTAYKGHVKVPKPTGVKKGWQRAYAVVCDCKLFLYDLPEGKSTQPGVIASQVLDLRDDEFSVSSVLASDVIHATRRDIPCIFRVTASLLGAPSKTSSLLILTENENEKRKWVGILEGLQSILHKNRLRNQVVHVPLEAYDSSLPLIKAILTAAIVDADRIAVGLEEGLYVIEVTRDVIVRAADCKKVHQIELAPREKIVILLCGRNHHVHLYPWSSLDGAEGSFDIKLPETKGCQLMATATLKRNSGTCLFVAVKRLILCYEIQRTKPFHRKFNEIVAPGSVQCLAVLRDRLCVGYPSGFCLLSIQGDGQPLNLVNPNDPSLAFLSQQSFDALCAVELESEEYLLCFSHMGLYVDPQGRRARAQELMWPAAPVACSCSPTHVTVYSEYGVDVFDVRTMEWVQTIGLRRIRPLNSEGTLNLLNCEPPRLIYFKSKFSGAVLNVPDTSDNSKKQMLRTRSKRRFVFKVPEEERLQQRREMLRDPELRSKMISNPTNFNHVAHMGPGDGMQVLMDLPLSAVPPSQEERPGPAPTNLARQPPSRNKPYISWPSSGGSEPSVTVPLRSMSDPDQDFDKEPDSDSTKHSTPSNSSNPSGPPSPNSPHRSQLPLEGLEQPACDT
- test-parameters: at 1 µM
quantity-kind: inhibition

Some solved entries appear below for comparison.
COc1cccc(-n2ncc3c(N/N=C/c4cccc(F)c4)ncnc32)c1 : 0.38%
CN(C)c1cc2c(Nc3ccc4nc(Cc5ccccc5)[nH]c4c3)ncnc2cn1 : 0.93%
NC(=O)c1cccc(Nc2nccc(Nc3cccc4[nH]ncc34)n2)c1 : 3.5%
NCc1ccc(-c2nc(-c3ccc(Cl)c(O)c3)c(-c3ccncc3)[nH]2)cc1 : 1.3%
COc1ccc2cc(-c3c(-c4ccncc4)nc(-c4ccc([S+](C)[O-])cc4)n3C)ccc2c1 (centres undefined) : 1.62%

The recorded inhibition for entry CCn1c(-c2nonc2N)nc2c(N3CCCC3)nccc21 equals 2.55%

The recorded inhibition for entry CS(=O)(=O)CCN(CC#N)Cc1ccc(-c2ccc3ncnc(Nc4ccc(OCc5cccc(F)c5)c(Cl)c4)c3c2)o1 equals -0.09%

The recorded inhibition for entry CC1=C(C(=O)Nc2ccc3[nH]ncc3c2)C(c2ccc(Cl)c(Cl)c2)CC(=O)N1 (centres undefined) equals 35%

The recorded inhibition for entry COC(=O)Nc1nc2cc(Oc3ccc(NC(=O)Nc4cccc(C(=O)O)c4)cc3)ccc2[nH]1 equals -1.21%

The recorded inhibition for entry COc1cc2ncn(-c3cc(O[C@@H](C)c4ccccc4Cl)c(C(N)=O)s3)c2cc1OC equals 3.35%

The recorded inhibition for entry CCn1c(-c2nonc2N)nc2cncc(C(=O)N3CC[C@H](N)C3)c21 equals 67.2%

The recorded inhibition for entry Cc1nn(C)c2cc(N(C)c3ccnc(Nc4cccc(S(N)(=O)=O)c4)n3)ccc12 equals 3.81%

---

- experimental-target: Serine/threonine-protein kinase PAK 1 (Homo sapiens);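 note: values are mean PAK1 inhibition from the GSK PKIS kinase inhibitor set screen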
- test-parameters: at 0.1 µM
quantity-kind: inhibition (%)
Numbers only here, please. The scale is %.

Some solved entries appear below for comparison.
COc1cc2ncn(-c3cc(OCc4ccccc4Cl)c(C(N)=O)s3)c2cc1OC : 3.48
Nc1ncnc2occ(-c3ccc(NC(=O)Nc4cc(C(F)(F)F)cc(C(F)(F)F)c4)cc3)c12 : 4.71
c1cnn2ncc(-c3ccnc(Nc4ccc5c(c4)OCCO5)n3)c2c1 : 3.98

The recorded inhibition for entry Fc1cccc(COc2ccc(Nc3ncnc4cc(-c5ccc[nH]5)sc34)cc2Cl)c1 equals 5.46

The recorded inhibition for entry CCn1c(-c2nonc2N)nc2ccncc21 equals 6.53

The recorded inhibition for entry COc1cc(C)c(NC(=O)CN(C)C)cc1Nc1nc(Nc2cccc(F)c2C(N)=O)c2cc[nH]c2n1 equals 2.74

The recorded inhibition for entry CCCN1CCC(Oc2cc(Nc3nc(Nc4cccc(F)c4C(N)=O)c4cc[nH]c4n3)c(OC)cc2Cl)CC1 equals -3.06

The recorded inhibition for entry CN(C)c1cc2c(Nc3ccc4nc(Cc5ccccc5)[nH]c4c3)ncnc2cn1 equals 8.36

The recorded inhibition for entry O=C1NC(=O)C(N2CCc3ccccc32)=C1c1ccc(Cl)cc1 equals 8.65

The recorded inhibition for entry O=C1NC(=O)C(c2ccc(Cl)cc2)=C1Nc1ccc(Cl)c(C(=O)O)c1 equals -2.53

---

- experimental-target: Serine/threonine-protein kinase PAK 5 (Homo sapiens);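 note: values are mean percent inhibition of PAK5 from a kinase inhibitor set screen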
- test-parameters: at 0.1 µM
This section presents compounds with their documented inhibition values.
Numbers only here, please. The scale is %.

Some solved entries appear below for comparison.
N#Cc1c(NC(=O)c2cccc3ccccc23)sc2c1CCCC2 : -2.18
COc1ccc(-c2ccncc2)cc1C(N)=O : 5.08
Nc1ncnc2occ(-c3ccc(NC(=O)Nc4cccc(C(F)(F)F)c4)cc3)c12 : 2.15
CN(C)c1cc2c(Nc3ccc4nc(Cc5ccccc5)[nH]c4c3)ncnc2cn1 : 9.58

Form field inhibition for item CCn1c(-c2nonc2N)nc2cncc(C(=O)N3CCNCC3)c21 on Serine/threonine-protein kinase PAK 5 (Homo sapiens): 6.95

Form field inhibition for item Cc1ccc(C(=O)NC2CCCCC2)cc1-c1ccc(C(=O)NCC2CC2)cc1 on Serine/threonine-protein kinase PAK 5 (Homo sapiens): 4.34

Form field inhibition for item COc1cccc(-n2ncc3c(N/N=C/c4cccc(F)c4)ncnc32)c1 on Serine/threonine-protein kinase PAK 5 (Homo sapiens): -1.62

Form field inhibition for item COc1ccc(-c2nn3ncccc3c2-c2ccnc(Nc3ccc(Cl)c(C(F)(F)F)c3)n2)cc1 on Serine/threonine-protein kinase PAK 5 (Homo sapiens): 1.71

Form field inhibition for item Cc1ccc(NC(=O)c2ccnc(N3CCCC3)c2)cc1-c1ccc(C(=O)NCC2CC2)cc1 on Serine/threonine-protein kinase PAK 5 (Homo sapiens): -9.56

Form field inhibition for item COc1cc2ncn(-c3cc(OCc4ccccc4C(F)(F)F)c(C(N)=O)s3)c2cc1OC on Serine/threonine-protein kinase PAK 5 (Homo sapiens): 1.8

---

- experimental-target: cGMP-dependent protein kinase 1 (Homo sapiens) (UniProt Q13976);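 note: listed percent inhibition of PRKG1 is a mean value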
- Sequence (Q13976 whole entry): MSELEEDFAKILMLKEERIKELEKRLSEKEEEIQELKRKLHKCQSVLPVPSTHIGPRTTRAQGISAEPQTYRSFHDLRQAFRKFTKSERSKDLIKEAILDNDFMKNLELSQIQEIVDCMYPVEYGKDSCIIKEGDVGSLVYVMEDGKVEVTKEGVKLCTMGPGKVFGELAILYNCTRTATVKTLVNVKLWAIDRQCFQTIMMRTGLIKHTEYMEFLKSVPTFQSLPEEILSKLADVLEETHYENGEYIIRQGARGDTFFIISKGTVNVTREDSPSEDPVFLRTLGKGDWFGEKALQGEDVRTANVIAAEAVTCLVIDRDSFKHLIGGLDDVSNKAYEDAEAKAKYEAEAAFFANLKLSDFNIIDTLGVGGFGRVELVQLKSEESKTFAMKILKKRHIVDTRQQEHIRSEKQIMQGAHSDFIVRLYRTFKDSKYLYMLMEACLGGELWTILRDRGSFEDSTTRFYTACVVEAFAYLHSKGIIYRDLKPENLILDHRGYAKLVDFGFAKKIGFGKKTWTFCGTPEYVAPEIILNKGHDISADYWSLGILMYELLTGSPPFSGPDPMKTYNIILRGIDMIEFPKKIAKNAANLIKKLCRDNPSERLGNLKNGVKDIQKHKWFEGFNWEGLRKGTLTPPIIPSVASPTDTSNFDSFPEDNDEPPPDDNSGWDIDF
- test-parameters: at 1 µM
quantity-kind: inhibition (%)
Numbers only here, please. The scale is %.

CC1=C(C(=O)Nc2ccc3[nH]ncc3c2)C(c2ccc(F)cc2)NC(=O)N1 (stereo not drawn) : 20.1
O=C1Nc2ccc(C(=O)c3ccco3)cc2C1=Cc1cc(Cl)c(O)c(Cl)c1 : 4.46
COc1cc2ncn(-c3cc(OCc4ccccc4C(F)(F)F)c(C(N)=O)s3)c2cc1OC : 0.86
COc1ccc(COc2ccc(Cc3cnc(N)nc3N)cc2OC)cc1 : 3.2
Nc1nc(-c2ccc3c(c2)C(=Cc2cc(Br)c(O)c(Br)c2)C(=O)N3)cs1 : 1.43
Cc1nnc(-c2ccc(C)c(-c3ccc(C(=O)Nc4cccc(C#N)c4)cc3)c2)o1 : 2.16

Moving on to another molecule below.
The recorded inhibition for entry CCc1cccc(NC(=O)Nc2ccc(Oc3ccc4nc(NC(=O)OC)[nH]c4c3)cc2)c1 equals 3.08

---

- experimental-target: Cyclin-dependent kinase 2 (Homo sapiens)
- test-parameters: at 0.1 µM
This section presents compounds with their documented inhibition values.
Numbers only here, please. The scale is %.

Some solved entries appear below for comparison.
CCn1c(-c2nonc2N)nc2cnc(Oc3cccc(NC(=O)c4ccc(OCCN5CCOCC5)cc4)c3)cc21 : 2.58
O=C1NC(=O)C(c2ccccc2Cl)=C1Nc1cccc(O)c1 : 3.51
CS(=O)(=O)Nc1ccc(N/C=C2\C(=O)Nc3ccccc32)cc1 : 1.42
CS(=O)(=O)CCNCc1ccc(-c2ccc3ncnc(Nc4ccc(OCc5cccc(F)c5)c(C(F)(F)F)c4)c3c2)o1 : 5.89
Cc1cc(O)cc(C)c1/C=C/c1cncc(-c2nn[nH]n2)c1 : -1.42

The recorded inhibition for entry COc1cccc(-n2ncc3c(N/N=C/c4cccc(F)c4)ncnc32)c1 equals 3.77

The recorded inhibition for entry Fc1cccc(COc2ccc(Nc3ncnc4cc(-c5ccc[nH]5)sc34)cc2Cl)c1 equals -1.97

The recorded inhibition for entry COc1cc2c(cc1Nc1nc(N3CCc4ccccc43)c3cc[nH]c3n1)N(C(=O)CN(C)C)CC2 equals 0.42

The recorded inhibition for entry COc1cc2ncn(-c3cc(OCc4ccccc4C(F)(F)F)c(C(N)=O)s3)c2cc1OC equals -2.45

---

- experimental-target: Tyrosine-protein kinase ABL1 (Homo sapiens) (UniProt P00519);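 note: reported values are mean percent inhibition of ABL1 kinase activity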
- Sequence (P00519 whole entry): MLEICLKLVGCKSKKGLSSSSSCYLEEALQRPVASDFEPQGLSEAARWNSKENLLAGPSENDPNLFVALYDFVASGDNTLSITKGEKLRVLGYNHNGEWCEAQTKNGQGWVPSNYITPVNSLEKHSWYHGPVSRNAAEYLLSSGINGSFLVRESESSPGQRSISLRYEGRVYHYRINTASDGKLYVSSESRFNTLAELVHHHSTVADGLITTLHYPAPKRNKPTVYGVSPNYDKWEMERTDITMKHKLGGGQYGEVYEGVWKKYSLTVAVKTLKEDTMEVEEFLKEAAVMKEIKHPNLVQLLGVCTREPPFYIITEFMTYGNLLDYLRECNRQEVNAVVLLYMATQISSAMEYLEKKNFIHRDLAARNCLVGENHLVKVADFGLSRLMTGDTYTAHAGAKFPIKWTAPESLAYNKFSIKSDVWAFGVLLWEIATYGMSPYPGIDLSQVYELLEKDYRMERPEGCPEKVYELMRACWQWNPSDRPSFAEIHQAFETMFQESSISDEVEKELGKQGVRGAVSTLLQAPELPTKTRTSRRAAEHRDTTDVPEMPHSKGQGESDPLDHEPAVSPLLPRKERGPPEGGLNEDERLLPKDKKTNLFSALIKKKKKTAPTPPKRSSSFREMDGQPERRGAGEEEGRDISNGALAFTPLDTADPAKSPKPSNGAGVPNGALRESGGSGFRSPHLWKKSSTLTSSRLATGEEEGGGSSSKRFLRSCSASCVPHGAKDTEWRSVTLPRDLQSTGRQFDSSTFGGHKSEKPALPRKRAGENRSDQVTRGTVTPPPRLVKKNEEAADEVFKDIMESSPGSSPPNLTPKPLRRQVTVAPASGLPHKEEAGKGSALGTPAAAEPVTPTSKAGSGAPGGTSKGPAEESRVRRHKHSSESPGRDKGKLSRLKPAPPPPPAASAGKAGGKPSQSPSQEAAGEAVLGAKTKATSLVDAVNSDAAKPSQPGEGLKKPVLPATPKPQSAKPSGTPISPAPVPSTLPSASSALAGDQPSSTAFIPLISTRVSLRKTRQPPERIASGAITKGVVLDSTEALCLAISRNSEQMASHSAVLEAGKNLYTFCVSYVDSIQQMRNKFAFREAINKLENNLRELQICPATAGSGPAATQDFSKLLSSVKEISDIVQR
- test-parameters: at 1 µM
This section presents compounds with their documented inhibition values.
Numbers only here, please. The scale is %.

Some solved entries appear below for comparison.
CC1=C(C(=O)Nc2ccc3[nH]ncc3c2)C(c2ccc3ccccc3c2)CC(=O)N1 (centres undefined) : 7.38
CCn1c(-c2nonc2N)nc2cncc(C(=O)N3CC[C@H](N)C3)c21 : 4.33
Cn1cc(C=C2C(=O)Nc3cccnc32)c2ccccc21 : 44.7
CS(=O)(=O)CCN(CC#N)Cc1ccc(-c2ccc3ncnc(Nc4ccc(OCc5cccc(F)c5)c(Cl)c4)c3c2)o1 : -2.95
COc1cc(C)c(NC(=O)CN(C)C)cc1Nc1nc(Nc2cccc(F)c2C(N)=O)c2cc[nH]c2n1 : 4.55

The recorded inhibition for entry CCn1c(-c2nonc2N)nc2c(C#CC(C)(C)O)nc(OC[C@@H](N)c3ccccc3)cc21 equals 10.1

The recorded inhibition for entry O=C1NC(=O)C(c2ccccc2Cl)=C1Nc1cccc(O)c1 equals 9.09

The recorded inhibition for entry CCCN1CCC=C(c2ccc(Nc3nc(Nc4ccccc4C(N)=O)c4cc[nH]c4n3)c(C)c2)C1 equals 16.4

The recorded inhibition for entry COc1cc2ncn(-c3cc(OCc4ccccc4C(F)(F)F)c(C(N)=O)s3)c2cc1OC equals 17.9

---

- experimental-target: Serine/threonine-protein kinase D3 (Homo sapiens) (UniProt O94806);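 note: each value is the mean of inhibition readings, from a kinase profiling panel run on the GSK PKIS inhibitor collection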
- Sequence (O94806 whole entry): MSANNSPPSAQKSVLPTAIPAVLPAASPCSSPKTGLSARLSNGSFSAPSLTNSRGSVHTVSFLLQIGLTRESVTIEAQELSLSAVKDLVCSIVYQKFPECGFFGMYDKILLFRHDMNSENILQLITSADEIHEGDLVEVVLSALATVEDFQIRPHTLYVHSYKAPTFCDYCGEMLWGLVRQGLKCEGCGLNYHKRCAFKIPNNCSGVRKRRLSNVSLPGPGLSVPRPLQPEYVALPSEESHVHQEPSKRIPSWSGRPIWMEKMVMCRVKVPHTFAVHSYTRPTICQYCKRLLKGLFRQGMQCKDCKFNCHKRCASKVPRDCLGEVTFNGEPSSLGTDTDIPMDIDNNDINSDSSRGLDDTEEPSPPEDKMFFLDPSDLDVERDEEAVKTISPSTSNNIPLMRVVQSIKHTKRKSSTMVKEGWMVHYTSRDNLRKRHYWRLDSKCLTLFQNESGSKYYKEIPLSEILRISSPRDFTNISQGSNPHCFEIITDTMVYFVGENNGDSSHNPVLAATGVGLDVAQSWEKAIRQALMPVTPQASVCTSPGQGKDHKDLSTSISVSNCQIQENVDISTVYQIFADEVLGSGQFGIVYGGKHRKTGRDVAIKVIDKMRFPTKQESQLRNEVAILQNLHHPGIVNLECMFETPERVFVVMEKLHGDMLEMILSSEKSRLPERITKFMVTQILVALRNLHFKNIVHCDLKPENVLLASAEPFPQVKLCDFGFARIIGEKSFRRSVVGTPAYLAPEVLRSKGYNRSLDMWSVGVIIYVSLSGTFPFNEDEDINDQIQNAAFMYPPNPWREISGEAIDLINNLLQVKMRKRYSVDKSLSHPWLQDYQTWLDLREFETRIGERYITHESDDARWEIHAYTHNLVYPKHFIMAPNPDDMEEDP
- test-parameters: at 0.1 µM
quantity-kind: inhibition (%)
Numbers only here, please. The scale is %.

Some solved entries appear below for comparison.
CS(=O)(=O)CCNCc1ccc(-c2ccc3ncnc(Nc4ccc(OCc5ccccc5)c(Cl)c4)c3c2)o1 : -0.81
O=C1Nc2ccc(C(=O)c3ccco3)cc2C1=Cc1cc(Cl)c(O)c(Cl)c1 : 3.68
CCn1c(-c2nonc2N)nc2cncc(C(=O)N3CCNCC3)c21 : 5.65

Moving on to another compound below.
The recorded inhibition for entry Cc1nnc(-c2ccc(C)c(-c3ccc(C(=O)Nc4cccc(C#N)c4)cc3)c2)o1 equals 2.37
